Assay: chemical genetic growth profiling, strain panel (AID 1159580);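 further: tested at 20 µM; growth read once vehicle control cultures reached saturation at 30 °C; 1 = growth at the plate median or of vehicle wells; lower values mean less growth of the strain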
Details: S. cerevisiae deletion strains, growth OD, locus YLR357W, strain rsc2, stronger effect = lower value
Hit rate of the full screen: of about 5,500 compounds, about 2,000 (36%) were called active. Not shown: some 18% with an inconclusive outcome. The list shows a part of the results.

[
  {
    "COMPOUND": "Nc1ccc(C(=O)Oc2ccccc2)c(O)c1",
    "normalized growth": "0.919 (inactive)"
  },
  {
    "COMPOUND": "COc1ccc(-c2cc(=O)c3cc(OC)ccc3o2)cc1",
    "normalized growth": "0.88 (inactive)"
  },
  {
    "COMPOUND": "CC1(C)O[C@@H]2CC3C4CCC5=CC(=O)C=C[C@]5(C)[C@@]4(F)[C@@H](O)C[C@]3(C)[C@]2(C(=O)CO)O1 (some centres undefined)",
    "normalized growth": "0.948 (inactive)"
  },
  {
    "COMPOUND": "CC(=O)Nc1cccc(O)c1",
    "normalized growth": "1.04 (inactive)"
  }
]
